Measured Target: human Cathepsin D (Homo sapiens, UniProt P07339)
Construct: purchased
Sequence (P07339 65-412): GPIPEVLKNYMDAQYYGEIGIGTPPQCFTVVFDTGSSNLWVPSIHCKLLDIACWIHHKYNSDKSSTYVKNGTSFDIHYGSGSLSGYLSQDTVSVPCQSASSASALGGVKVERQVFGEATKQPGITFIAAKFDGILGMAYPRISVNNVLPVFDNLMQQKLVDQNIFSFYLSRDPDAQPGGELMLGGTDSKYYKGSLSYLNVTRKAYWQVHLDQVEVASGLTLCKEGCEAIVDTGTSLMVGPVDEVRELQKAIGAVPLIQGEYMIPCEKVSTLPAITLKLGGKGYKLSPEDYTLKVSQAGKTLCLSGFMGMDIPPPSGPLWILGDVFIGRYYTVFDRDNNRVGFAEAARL
Run Description: Cathepsin D inhibition assay, hydrolysis of chromogenic substrate
Format: biochemical
Cond: 25° C., 10 mM sodium formate, 2% DMSO, pH 4.0; fit to competitive inhibition; read-out: Ki CatD
pKi: −log10 of the molar value.
Endpoint Name: pKi

> print(dat)
                              record.smiles                           measured.target  reported.measurement
1  CC(C)[C@H](NC(=O)c1cccc2ccccc12)C(=O)N[C@@H](Cc1ccccc1)[C@H](O)C(=O)N1CSC(C)(C)[C@H]1C(=O)NC(C)(C)C  human Cathepsin D (Homo sapiens, UniProt P07339)                  5.99

A = Cc1ccc(CNC(=O)[C@H]2N(C(=O)[C@@H](O)[C@H](Cc3ccccc3)NC(=O)COc3c(C)cccc3C)CSC2(C)C)cc1
B = Cc1cccc(C)c1OCC(=O)N[C@@H](Cc1ccccc1)[C@H](O)C(=O)N1CSC(C)(C)[C@H]1C(=O)NCc1cccc(O)c1
stdin: # returns the entry with the larger pKi; inputs A and B In your reply, give the label of the chosen option.
stdout: B
(B: 6.11, A: 5.88)
